Property: NADPH fluorescence slope; scope: individual compounds
Biological target: Voltage-gated potassium channel subunit beta-2 (Rattus norvegicus) (UniProt P62483)
Sequence (P62483 whole entry, looked up): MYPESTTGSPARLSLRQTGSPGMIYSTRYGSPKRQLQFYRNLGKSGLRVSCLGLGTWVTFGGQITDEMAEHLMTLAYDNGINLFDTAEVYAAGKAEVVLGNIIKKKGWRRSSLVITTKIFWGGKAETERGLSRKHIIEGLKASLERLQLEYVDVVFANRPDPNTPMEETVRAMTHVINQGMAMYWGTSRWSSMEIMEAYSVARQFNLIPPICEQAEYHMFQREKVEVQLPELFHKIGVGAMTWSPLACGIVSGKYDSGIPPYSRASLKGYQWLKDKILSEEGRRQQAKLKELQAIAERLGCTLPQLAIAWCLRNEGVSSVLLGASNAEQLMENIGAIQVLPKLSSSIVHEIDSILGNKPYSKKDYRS
Test: KvBeta positive modulators, primary screen, biochemical, NADPH fluorescence (AID 623);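 note: fluorescence intensity change per second fitted from 20 to 320 s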
Details: Recombinant KvBeta, NADPH fluorescence decrease slope, 10 min; at 10 µM; hits give low values
readout-label: NADPH fluorescence slope

compound	readout-label	experimental-value
COc1ccc(C2C=C(c3ccc(Cl)cc3)Nc3nc(NC(C)=O)nn32)cc1 (stereo unspecified)	NADPH fluorescence slope	4.9e-05
CCOC(=O)C1=C(C)NC(=O)NC1c1ccc2c(c1)OCO2 (stereo unspecified)	NADPH fluorescence slope	-7.4e-05
CCCN(CCC)S(=O)(=O)c1ccc(C(=O)O)cc1	NADPH fluorescence slope	3.2e-06
CC[N+](C)(C)c1cccc(O)c1	NADPH fluorescence slope	-5.2e-05
CCCCC(=O)O[C@]1(C(=O)CO)CC[C@H]2[C@@H]3CCC4=CC(=O)CC[C@]4(C)[C@H]3[C@@H](O)C[C@@]21C	NADPH fluorescence slope	-4.6e-05
C=C(c1ccc(OCCO)cc1)c1ccc(OCCO)cc1	NADPH fluorescence slope	-0.000129
